# Type: in vivo, human
# TEST SETTINGS: both, human, plasma, iv, 6 mg/kg, AUC0–t, Study 1, single 6 mg/kg dose, 2 min iv injection, HPLC, trapezoidal rule, arithmetic mean (SD), n = 15, not dose-normalized; SD
RECORDED ENDPOINT: AUC(0-t) (µg·h/mL)
All answers are understood in µg·h/mL, so give the number only.

Consider the compound "CCCCCCCCCC(=O)N[C@@H](Cc1c[nH]c2ccccc12)C(=O)N[C@H](CC(N)=O)C(=O)N[C@@H](CC(=O)O)C(=O)N[C@@H]1C(=O)NCC(=O)N[C@@H](CCCN)C(=O)N[C@@H](CC(=O)O)C(=O)N[C@H](C)C(=O)N[C@@H](CC(=O)O)C(=O)NCC(=O)N[C@H](CO)C(=O)N[C@@H]([C@H](C)CC(=O)O)C(=O)N[C@@H](CC(=O)c2ccccc2N)C(=O)O[C@@H]1C" and give its measured AUC(0-t).
626

* * *

# PROCEDURE TEXT: Study 2: single- and multiple-dose pharmacokinetics of the 2 min iv injection
# Type: in vivo, human
# TEST SETTINGS: both, human, plasma, iv, 4 mg/kg, t1/2, Study 2, day 1, 4 mg/kg 2 min iv injection, plasma, arithmetic mean (SD), n = 8; SD
RECORDED ENDPOINT: half-life

Consider the compound CCCCCCCCCC(=O)N[C@@H](Cc1c[nH]c2ccccc12)C(=O)N[C@H](CC(N)=O)C(=O)N[C@@H](CC(=O)O)C(=O)N[C@@H]1C(=O)NCC(=O)N[C@@H](CCCN)C(=O)N[C@@H](CC(=O)O)C(=O)N[C@H](C)C(=O)N[C@@H](CC(=O)O)C(=O)NCC(=O)N[C@H](CO)C(=O)N[C@@H]([C@H](C)CC(=O)O)C(=O)N[C@@H](CC(=O)c2ccccc2N)C(=O)O[C@@H]1C [daptomycin] and give its measured half-life.
9.08 h

* * *

# PROCEDURE TEXT: Study 2: single- and multiple-dose pharmacokinetics of the 2 min iv injection
# Type: in vivo, human
# TEST SETTINGS: both, human, urine, iv, 4 mg/kg; SD
RECORDED ENDPOINT: dose excreted (%)
All answers are understood in %, so give the number only.

Consider the compound "CCCCCCCCCC(=O)N[C@@H](Cc1c[nH]c2ccccc12)C(=O)N[C@H](CC(N)=O)C(=O)N[C@@H](CC(=O)O)C(=O)N[C@@H]1C(=O)NCC(=O)N[C@@H](CCCN)C(=O)N[C@@H](CC(=O)O)C(=O)N[C@H](C)C(=O)N[C@@H](CC(=O)O)C(=O)NCC(=O)N[C@H](CO)C(=O)N[C@@H]([C@H](C)CC(=O)O)C(=O)N[C@@H](CC(=O)c2ccccc2N)C(=O)O[C@@H]1C" and give its measured dose excreted.
54.3

* * *

# Type: in vivo, human
# TEST SETTINGS: both, human, plasma, iv, 6 mg/kg; SD
RECORDED ENDPOINT: Vd (L/kg)
All answers are understood in L/kg, so give the number only.

Consider the molecule CCCCCCCCCC(=O)N[C@@H](Cc1c[nH]c2ccccc12)C(=O)N[C@H](CC(N)=O)C(=O)N[C@@H](CC(=O)O)C(=O)N[C@@H]1C(=O)NCC(=O)N[C@@H](CCCN)C(=O)N[C@@H](CC(=O)O)C(=O)N[C@H](C)C(=O)N[C@@H](CC(=O)O)C(=O)NCC(=O)N[C@H](CO)C(=O)N[C@@H]([C@H](C)CC(=O)O)C(=O)N[C@@H](CC(=O)c2ccccc2N)C(=O)O[C@@H]1C [daptomycin] and give its measured Vd.
0.113

* * *

# Type: in vivo, human
# TEST SETTINGS: both, human, plasma, iv, 6 mg/kg, Cmax, Study 1, single 6 mg/kg dose, 30 min iv infusion, HPLC, arithmetic mean (SD), n = 15, not dose-normalized; SD
RECORDED ENDPOINT: Cmax (µg/mL)
All answers are understood in µg/mL, so give the number only.

Consider the molecule "CCCCCCCCCC(=O)N[C@@H](Cc1c[nH]c2ccccc12)C(=O)N[C@H](CC(N)=O)C(=O)N[C@@H](CC(=O)O)C(=O)N[C@@H]1C(=O)NCC(=O)N[C@@H](CCCN)C(=O)N[C@@H](CC(=O)O)C(=O)N[C@H](C)C(=O)N[C@@H](CC(=O)O)C(=O)NCC(=O)N[C@H](CO)C(=O)N[C@@H]([C@H](C)CC(=O)O)C(=O)N[C@@H](CC(=O)c2ccccc2N)C(=O)O[C@@H]1C" and give its measured Cmax.
88.4

* * *

# Assay type: in vivo, human
# TEST SETTINGS: both, human, plasma, iv, 6 mg/kg, AUC0–∞, Study 1, single 6 mg/kg dose, 2 min iv injection, HPLC, arithmetic mean (SD), n = 15, not dose-normalized; SD
RECORDED ENDPOINT: AUC(0-inf) (µg·h/mL)
All answers are understood in µg·h/mL, so give the number only.

Consider the compound "CCCCCCCCCC(=O)N[C@@H](Cc1c[nH]c2ccccc12)C(=O)N[C@H](CC(N)=O)C(=O)N[C@@H](CC(=O)O)C(=O)N[C@@H]1C(=O)NCC(=O)N[C@@H](CCCN)C(=O)N[C@@H](CC(=O)O)C(=O)N[C@H](C)C(=O)N[C@@H](CC(=O)O)C(=O)NCC(=O)N[C@H](CO)C(=O)N[C@@H]([C@H](C)CC(=O)O)C(=O)N[C@@H](CC(=O)c2ccccc2N)C(=O)O[C@@H]1C" and give its measured AUC(0-inf).
691

* * *

# PROCEDURE TEXT: Study 2: single- and multiple-dose pharmacokinetics of the 2 min iv injection
# Format: in vivo, human
# TEST SETTINGS: both, human, plasma, iv, 4 mg/kg, V, Study 2, day 7, 4 mg/kg 2 min iv injection once daily, plasma, arithmetic mean (SD), n = 8; SD
RECORDED ENDPOINT: Vd (L/kg)
All answers are understood in L/kg, so give the number only.

Consider the compound "CCCCCCCCCC(=O)N[C@@H](Cc1c[nH]c2ccccc12)C(=O)N[C@H](CC(N)=O)C(=O)N[C@@H](CC(=O)O)C(=O)N[C@@H]1C(=O)NCC(=O)N[C@@H](CCCN)C(=O)N[C@@H](CC(=O)O)C(=O)N[C@H](C)C(=O)N[C@@H](CC(=O)O)C(=O)NCC(=O)N[C@H](CO)C(=O)N[C@@H]([C@H](C)CC(=O)O)C(=O)N[C@@H](CC(=O)c2ccccc2N)C(=O)O[C@@H]1C" and give its measured Vd.
0.109

* * *

# PROCEDURE TEXT: Study 2: single- and multiple-dose pharmacokinetics of the 2 min iv injection
# Type: in vivo, human
# TEST SETTINGS: both, human, plasma, iv, 4 mg/kg, t1/2, Study 2, day 7, 4 mg/kg 2 min iv injection once daily, plasma, arithmetic mean (SD), n = 8; SD
RECORDED ENDPOINT: half-life (h)
All answers are understood in h, so give the number only.

Consider the compound "CCCCCCCCCC(=O)N[C@@H](Cc1c[nH]c2ccccc12)C(=O)N[C@H](CC(N)=O)C(=O)N[C@@H](CC(=O)O)C(=O)N[C@@H]1C(=O)NCC(=O)N[C@@H](CCCN)C(=O)N[C@@H](CC(=O)O)C(=O)N[C@H](C)C(=O)N[C@@H](CC(=O)O)C(=O)NCC(=O)N[C@H](CO)C(=O)N[C@@H]([C@H](C)CC(=O)O)C(=O)N[C@@H](CC(=O)c2ccccc2N)C(=O)O[C@@H]1C" and give its measured half-life.
8.93

* * *

# Type: in vivo, human
# TEST SETTINGS: both, human, plasma, iv, 6 mg/kg, CL, Study 1, single 6 mg/kg dose, 30 min iv infusion, healthy adult volunteers, HPLC, non-compartmental, arithmetic mean (SD), n = 15; SD
RECORDED ENDPOINT: clearance (mL/min/kg)
All answers are understood in mL/min/kg, so give the number only.

Consider the molecule CCCCCCCCCC(=O)N[C@@H](Cc1c[nH]c2ccccc12)C(=O)N[C@H](CC(N)=O)C(=O)N[C@@H](CC(=O)O)C(=O)N[C@@H]1C(=O)NCC(=O)N[C@@H](CCCN)C(=O)N[C@@H](CC(=O)O)C(=O)N[C@H](C)C(=O)N[C@@H](CC(=O)O)C(=O)NCC(=O)N[C@H](CO)C(=O)N[C@@H]([C@H](C)CC(=O)O)C(=O)N[C@@H](CC(=O)c2ccccc2N)C(=O)O[C@@H]1C [daptomycin] and give its measured clearance.
0.138

* * *

# PROCEDURE TEXT: Study 2: single- and multiple-dose pharmacokinetics of the 2 min iv injection
# Assay type: in vivo, human
# TEST SETTINGS: both, human, plasma, iv, 4 mg/kg, Tmax, Study 2, day 1, 4 mg/kg 2 min iv injection, plasma, median (range), n = 8
RECORDED ENDPOINT: Tmax

Consider the molecule "CCCCCCCCCC(=O)N[C@@H](Cc1c[nH]c2ccccc12)C(=O)N[C@H](CC(N)=O)C(=O)N[C@@H](CC(=O)O)C(=O)N[C@@H]1C(=O)NCC(=O)N[C@@H](CCCN)C(=O)N[C@@H](CC(=O)O)C(=O)N[C@H](C)C(=O)N[C@@H](CC(=O)O)C(=O)NCC(=O)N[C@H](CO)C(=O)N[C@@H]([C@H](C)CC(=O)O)C(=O)N[C@@H](CC(=O)c2ccccc2N)C(=O)O[C@@H]1C" and give its measured Tmax.
8.4 min
